Biological target: human GLP-1 receptor (human, UniProt P43220 24-463)
Assay: cell-based or functional assay
Bridge positions count the residues as written; N and C are the ends. Square brackets hold non-standard residues; d marks the D form. Ends that are not written are not given here. * marks the point of attachment. Acetyl(2-(4-imidazolyl)) = O=C(Cc1c[nH]cn1)*; Aib = CC(C)(N)C(=O)O
measureName: In Vitro Activity Compared to Native Peptide (%) vs. GLP-1 (relative titer from cAMP EC50)
One number for each entry, in %.

>>> measurednumber("Y[Aib]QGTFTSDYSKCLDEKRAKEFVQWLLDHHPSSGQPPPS (bridge 16-20; not fully specified (bridges)) [trigonal agonist of SEQ ID NO: 2]")
20.1
>>> measurednumber("[Acetyl(2-(4-imidazolyl))][Aib]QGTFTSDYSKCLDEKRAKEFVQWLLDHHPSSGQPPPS (bridge 16-20; not fully specified (bridges)) [trigonal agonist of SEQ ID NO: 29]")
12.9
>>> measurednumber("Y[Aib]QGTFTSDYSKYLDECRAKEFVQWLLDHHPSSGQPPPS (bridge 16-20; not fully specified (bridges)) [trigonal agonist of SEQ ID NO: 1]")
17.8
>>> measurednumber("Y[Aib]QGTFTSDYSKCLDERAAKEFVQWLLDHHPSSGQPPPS (bridge 16-20; not fully specified (bridges)) [trigonal agonist of SEQ ID NO: 24]")
24.3
>>> measurednumber("H[Aib]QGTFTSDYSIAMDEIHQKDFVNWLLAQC (lactam 16-20) [trigonal agonist of SEQ ID NO: 16]")
27.1
>>> measurednumber("Y[Aib]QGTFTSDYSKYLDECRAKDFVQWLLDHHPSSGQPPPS (bridge 16-20; not fully specified (bridges)) [trigonal agonist of SEQ ID NO: 21]")
15.8
>>> measurednumber("[Acetyl(2-(4-imidazolyl))][Aib]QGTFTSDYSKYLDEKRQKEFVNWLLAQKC (bridge 16-20; not fully specified (bridges)) [trigonal agonist of SEQ ID NO: 39]")
5.7
>>> measurednumber("H[Aib]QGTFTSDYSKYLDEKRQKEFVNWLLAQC (bridge 16-20; not fully specified (bridges)) [trigonal agonist of SEQ ID NO: 17]")
57.9

In Vitro Activity Compared to Native Peptide (%) vs. GLP-1 (relative titer from cAMP EC50) recorded for this binder, [Acetyl(2-(4-imidazolyl))][Aib]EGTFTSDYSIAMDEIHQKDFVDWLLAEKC (bridge 16-20; not fully specified (bridges)) [trigonal agonist of SEQ ID NO: 38] , is 31.9
